Values compiled from the supplement of paper PMC6555819.

test system: PPARg homodimer (NR concentration 180 nM); assay: PBM binding z-score (relative to random genomic background probes); higher = stronger binding; sequences stand for … in GC…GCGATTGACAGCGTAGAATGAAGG
param class (str): category from PBM binding z-score; see ranges L (below 0.4), M (0.4 to below 2), H (2 or more)

1. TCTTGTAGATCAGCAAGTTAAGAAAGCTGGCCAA    L
2. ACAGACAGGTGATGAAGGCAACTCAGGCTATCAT    L
3. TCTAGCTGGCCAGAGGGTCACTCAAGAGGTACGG    L
4. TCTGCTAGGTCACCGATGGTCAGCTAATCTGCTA    L
5. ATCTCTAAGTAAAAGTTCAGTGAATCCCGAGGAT    M

query: Using the reported PBM binding z-score, which band applies to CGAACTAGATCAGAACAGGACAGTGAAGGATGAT ?
result: M

query: Tag the class for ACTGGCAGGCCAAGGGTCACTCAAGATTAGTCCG
result: M

----------
Below, each of the sequences is paired with its reported PBM binding z-score value.
tested on: RXRa DBDmut IVT, anti-RXR (DBD mutation: RXRa K156A/R161A, NR concentration 90 nM); test: PBM binding z-score (relative to random genomic background probes); higher = stronger binding; sequences stand for … in GC…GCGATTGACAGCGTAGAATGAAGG
Answer with the value's number alone.

Below are worked cases with known answers.
1. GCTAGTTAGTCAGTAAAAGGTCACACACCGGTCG    0.44
2. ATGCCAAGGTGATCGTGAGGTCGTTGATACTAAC    0.41
3. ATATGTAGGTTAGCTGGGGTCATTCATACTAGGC    2.52
4. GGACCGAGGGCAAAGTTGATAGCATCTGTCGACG    2.07

query: Look up PBM binding z-score of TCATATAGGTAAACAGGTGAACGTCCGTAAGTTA and report it.
result: 1.31

query: Recall and state the measured PBM binding z-score for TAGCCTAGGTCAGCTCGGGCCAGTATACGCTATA .
result: -0.297

query: Let me know recorded PBM binding z-score for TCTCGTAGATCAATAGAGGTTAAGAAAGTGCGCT , thanks.
result: 0.754

query: Give the reported value of PBM binding z-score for this record: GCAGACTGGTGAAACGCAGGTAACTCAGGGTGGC
result: -1.05

----------
# PBM binding z-score annotations
system: PPARg DBDmut IVT, anti-PPARg (DBD mutation: PPARg1 K132A/R137A, NR concentration 270 nM); experiment: PBM binding z-score (relative to random genomic background probes); higher = stronger binding; sequences stand for … in GC…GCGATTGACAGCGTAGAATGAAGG
Answer with the value's number alone.

1. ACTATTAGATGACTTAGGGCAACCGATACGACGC    1.42
2. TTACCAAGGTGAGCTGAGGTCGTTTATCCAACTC    -0.389
3. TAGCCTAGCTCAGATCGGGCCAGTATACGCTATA    -1.92
4. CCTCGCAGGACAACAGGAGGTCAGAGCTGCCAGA    -0.93
5. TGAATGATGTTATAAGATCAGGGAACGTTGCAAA    0.597
6. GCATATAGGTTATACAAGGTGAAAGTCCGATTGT    0.875
7. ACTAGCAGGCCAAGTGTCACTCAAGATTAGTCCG    -0.466
8. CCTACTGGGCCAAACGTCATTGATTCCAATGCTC    -0.413

query: Complete the entry with PBM binding z-score for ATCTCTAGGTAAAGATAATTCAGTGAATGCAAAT
result: 1.29

query: Let me know recorded PBM binding z-score for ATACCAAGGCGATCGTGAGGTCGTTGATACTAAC , thanks.
result: -0.313

query: Check the records and state PBM binding z-score for TCTTGTAGATCAATAGAGGTCAAGAAAGTGCGCT
result: 0.341

query: Using the record for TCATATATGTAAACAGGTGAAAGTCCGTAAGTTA , state its measured PBM binding z-score.
result: 1.22

----------
The following sequences are listed with their measured PBM binding z-score values.
tested on: RARb homodimer (NR concentration 270 nM); assay: PBM binding z-score (relative to random genomic background probes); higher = stronger binding; sequences stand for … in GC…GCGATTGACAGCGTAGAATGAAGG

# example entries with known answers
1) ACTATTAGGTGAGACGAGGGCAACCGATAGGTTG    1.7
2) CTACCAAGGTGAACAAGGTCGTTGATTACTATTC    2.1
3) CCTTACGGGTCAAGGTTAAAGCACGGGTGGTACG    3.57

query: Report measured PBM binding z-score on RARb homodimer (NR concentration 270 nM); entry: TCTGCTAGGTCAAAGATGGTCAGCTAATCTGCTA
result: 3.04

query: # assay system RARb homodimer (NR concentration 270 nM): give PBM binding z-score of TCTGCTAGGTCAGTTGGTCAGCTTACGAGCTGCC
result: 2.7

query: Answer briefly: PBM binding z-score recorded on RARb homodimer (NR concentration 270 nM) for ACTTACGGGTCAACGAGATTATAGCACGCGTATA
result: 2.96

----------
test system: LXRb:RXRa (NR concentration 270 nM, RXRa partner concentration 90 nM); experiment: PBM binding z-score (relative to random genomic background probes); higher = stronger binding; sequences stand for … in GC…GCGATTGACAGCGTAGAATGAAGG
Reported PBM binding z-score is given for each of the following sequences.
// no unit string in output, number only

Answered examples (3):
1) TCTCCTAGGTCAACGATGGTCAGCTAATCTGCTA    2.49
2) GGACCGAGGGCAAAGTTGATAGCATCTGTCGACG    0.811
3) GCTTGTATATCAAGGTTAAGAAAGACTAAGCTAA    0.659

query: Read the entry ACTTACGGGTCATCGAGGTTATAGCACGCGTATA and write its reported PBM binding z-score.
result: 4.29

query: Give the measured PBM binding z-score for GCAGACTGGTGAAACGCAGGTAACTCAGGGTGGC
result: -1.19

----------
tested on: PPARg homodimer (NR concentration 180 nM); test: PBM binding z-score (relative to random genomic background probes); higher = stronger binding; sequences stand for … in GC…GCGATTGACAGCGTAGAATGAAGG
Output T for PBM binding z-score not less than 0.2; output F otherwise.

Some solved cases for reference:
1) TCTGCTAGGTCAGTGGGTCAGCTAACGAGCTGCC    T
2) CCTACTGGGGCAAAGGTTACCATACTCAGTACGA    T
3) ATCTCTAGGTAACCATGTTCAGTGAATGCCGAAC    T
4) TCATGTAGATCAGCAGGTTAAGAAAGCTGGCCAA    T
5) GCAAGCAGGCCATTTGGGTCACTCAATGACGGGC    F
6) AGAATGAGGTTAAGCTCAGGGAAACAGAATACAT    F
7) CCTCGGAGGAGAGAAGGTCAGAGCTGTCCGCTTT    T
8) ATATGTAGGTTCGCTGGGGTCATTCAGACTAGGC    T
9) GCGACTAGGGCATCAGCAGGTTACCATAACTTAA    F
10) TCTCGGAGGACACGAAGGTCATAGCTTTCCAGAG    T

query: Identify whether the reported PBM binding z-score of the following sequence is 0.2 or greater: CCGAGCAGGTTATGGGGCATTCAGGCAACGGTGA
result: T

query: Test whether the sequence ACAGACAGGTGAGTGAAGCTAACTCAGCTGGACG records PBM binding z-score of 0.2 or higher.
result: F

----------
tested on: RXRa homodimer (NR concentration 180 nM); test: PBM binding z-score (relative to random genomic background probes); higher = stronger binding; sequences stand for … in GC…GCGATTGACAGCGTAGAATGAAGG
Label scheme for PBM binding z-score: lower than 3 is NO, 3 and above is YES.

1) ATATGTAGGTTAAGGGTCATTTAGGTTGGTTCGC    YES
2) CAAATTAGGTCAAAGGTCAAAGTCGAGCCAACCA    YES
3) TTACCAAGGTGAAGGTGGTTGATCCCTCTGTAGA    NO
4) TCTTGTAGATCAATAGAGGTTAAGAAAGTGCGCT    NO
5) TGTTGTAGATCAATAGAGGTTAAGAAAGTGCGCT    NO
6) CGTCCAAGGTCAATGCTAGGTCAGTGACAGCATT    YES
7) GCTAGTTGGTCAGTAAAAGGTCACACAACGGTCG    YES
8) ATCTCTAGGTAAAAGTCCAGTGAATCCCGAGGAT    NO

query: Form field: PBM binding z-score at least 3? Entry: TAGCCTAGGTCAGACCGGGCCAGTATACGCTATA
result: NO

query: Would you say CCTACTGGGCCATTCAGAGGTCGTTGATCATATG shows PBM binding z-score at minimum 3?
result: NO

query: # bool: PBM binding z-score of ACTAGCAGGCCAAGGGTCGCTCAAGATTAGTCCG >= 3
result: NO
